study-target: T1, Human CD137 ECD (human)
T1 construct: also called 4-1BB
T1 sequence (chain, as listed by the source limits assumed): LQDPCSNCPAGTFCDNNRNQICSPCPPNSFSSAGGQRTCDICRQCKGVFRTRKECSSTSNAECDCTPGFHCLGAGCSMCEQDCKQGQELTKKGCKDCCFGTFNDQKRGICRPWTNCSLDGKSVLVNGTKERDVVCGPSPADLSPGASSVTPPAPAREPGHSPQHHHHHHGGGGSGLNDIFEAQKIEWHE
experiment: single mutant vs template dBBDu183H
observed-property: fold change of affinity (fold)

INSERT INTO results (binder, experimental_value) VALUES
  ('H183/L072 VH H93M (antibody, name in Kabat numbering, V domains shown) VH: QVQLVESGGGLVQPGRSLRLSCAASGFTFSNAWMHWVRQAPGKGLEWVAQIKDKGNAYAAYYAPSVKGRFTISRDDSKNSIYLQMNSLKTEDTAVYYCMYVHYASASTVLPAFGVDAWGQGTTVTVSS VL: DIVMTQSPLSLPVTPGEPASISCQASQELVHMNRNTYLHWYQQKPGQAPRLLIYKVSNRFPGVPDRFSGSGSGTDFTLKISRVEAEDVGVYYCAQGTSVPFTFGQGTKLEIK', 0),
  ('H183/L072 VH A54E (antibody, name in Kabat numbering, V domains shown) VH: QVQLVESGGGLVQPGRSLRLSCAASGFTFSNAWMHWVRQAPGKGLEWVAQIKDKGNEYAAYYAPSVKGRFTISRDDSKNSIYLQMNSLKTEDTAVYYCHYVHYASASTVLPAFGVDAWGQGTTVTVSS VL: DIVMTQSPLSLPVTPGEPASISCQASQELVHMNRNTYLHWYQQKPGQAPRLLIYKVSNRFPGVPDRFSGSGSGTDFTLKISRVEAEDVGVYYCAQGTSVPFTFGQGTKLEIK', 1),
  ('H183/L072 VH H93L (antibody, name in Kabat numbering, V domains shown) VH: QVQLVESGGGLVQPGRSLRLSCAASGFTFSNAWMHWVRQAPGKGLEWVAQIKDKGNAYAAYYAPSVKGRFTISRDDSKNSIYLQMNSLKTEDTAVYYCLYVHYASASTVLPAFGVDAWGQGTTVTVSS VL: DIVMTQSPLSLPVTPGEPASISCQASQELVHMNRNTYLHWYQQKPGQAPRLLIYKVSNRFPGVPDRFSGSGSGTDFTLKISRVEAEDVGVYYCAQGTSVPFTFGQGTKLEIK', 0),
  ('H183/L072 VH G26L (antibody, name in Kabat numbering, V domains shown) VH: QVQLVESGGGLVQPGRSLRLSCAASLFTFSNAWMHWVRQAPGKGLEWVAQIKDKGNAYAAYYAPSVKGRFTISRDDSKNSIYLQMNSLKTEDTAVYYCHYVHYASASTVLPAFGVDAWGQGTTVTVSS VL: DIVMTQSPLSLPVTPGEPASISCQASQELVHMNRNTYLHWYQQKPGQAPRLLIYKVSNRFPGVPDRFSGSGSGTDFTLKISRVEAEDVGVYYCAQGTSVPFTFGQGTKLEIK', 0.3),
  ('H183/L072 VH A54F (antibody, name in Kabat numbering, V domains shown) VH: QVQLVESGGGLVQPGRSLRLSCAASGFTFSNAWMHWVRQAPGKGLEWVAQIKDKGNFYAAYYAPSVKGRFTISRDDSKNSIYLQMNSLKTEDTAVYYCHYVHYASASTVLPAFGVDAWGQGTTVTVSS VL: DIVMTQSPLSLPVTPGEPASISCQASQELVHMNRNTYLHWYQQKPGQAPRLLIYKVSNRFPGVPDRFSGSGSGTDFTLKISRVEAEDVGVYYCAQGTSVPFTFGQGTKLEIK', 0.9);
